Give measured pIC50 for each item. Keep answers brief.
# Tested on: Hep 3B2
# Assay Method Text: Cytotoxicity against human Hep3B cells assessed as inhibition of cell proliferation incubated for 48 hrs by MTT assay
# Assay type: functional, cell-based
Numbers only, as −log10 of the molar value.

Known results for compounds:
CC(C)=CCc1cc(-c2oc3cc(O)cc(O)c3c(=O)c2O)ccc1O | 4.94
COc1c(-c2cc(O)c(O)c(CC=C(C)C)c2)oc2c(CC=C(C)C)c(O)cc(O)c2c1=O | 5.97
COc1c(-c2ccc(O)c(O)c2)oc2c(C/C=C(\C)CCC=C(C)C)c(O)cc(O)c2c1=O | 5.32

The following compounds each have a reported value; give each one's pIC50.
1. CC1(C)C=Cc2cc(-c3oc4cc(O)cc(O)c4c(=O)c3O)cc(O)c2O1
2. COc1c(-c2cc(O)c3c(c2)CC(O)C(C)(C)O3)oc2c(CC=C(C)C)c(O)cc(O)c2c1=O (stereo not drawn)
3. COC1=C(c2ccc(O)cc2)Oc2c(CC=C(C)C)c(O)cc(O)c2C1O (stereo not drawn)

[A]
1: 4.55; 2: 6.20; 3: 5.40
